- Experimental Target: human Cot catalytic domain (30-397 amino acids) (Homo sapiens, UniProt P41279)
- Construct: Purified recombinant human Cot catalytic domain (30-397 amino acids) was purchased from Cama Biosciences; purchased Cama Biosciences (so in the source)
- Sequence (P41279 30-397): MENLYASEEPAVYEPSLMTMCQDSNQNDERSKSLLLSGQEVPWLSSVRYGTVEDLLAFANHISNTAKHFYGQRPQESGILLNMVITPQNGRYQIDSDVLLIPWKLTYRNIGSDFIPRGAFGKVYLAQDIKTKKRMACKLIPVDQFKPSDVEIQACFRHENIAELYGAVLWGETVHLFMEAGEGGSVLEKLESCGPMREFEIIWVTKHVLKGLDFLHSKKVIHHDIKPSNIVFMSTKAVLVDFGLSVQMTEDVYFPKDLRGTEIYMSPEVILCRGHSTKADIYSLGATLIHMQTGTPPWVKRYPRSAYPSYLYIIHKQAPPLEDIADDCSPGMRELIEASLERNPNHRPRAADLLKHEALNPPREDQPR
- Run Description: High Throughput Cot Biochemical Assay (KinEASE TR-FRET)
- Assay Conditions: Cot biochemical HTRF (KinEASE TR-FRET) assay; read-out: IC50 HTRF
- Text: Example 61: High Throughput Cot Biochemical Assay In this assay, Cot-catalyzes the phosphorylation of a XL665-labeled peptide substrate. Europium conjugated phospho-tyrosine specific antibody binds the resulting phosphorylated peptide. […] Purified recombinant human Cot catalytic domain (30-397 amino acids) was purchased from Cama Biosciences. […]
pIC50: −log10 of the molar value.
Measurement Label: pIC50

Some molecules with recorded pIC50:
Molecular String | Experimental Target | Measurement Label | Measured Value
CC(C)n1cc([C@@H](Nc2cc(Cl)c3ncc(C#N)c(Nc4cccc(Cl)c4F)c3c2)c2cccc(C(=O)N(C)C)c2)nn1 | human Cot catalytic domain (30-397 amino acids) (Homo sapiens, UniProt P41279) | pIC50 | 8.70
CC1(Cn2cc([C@@H](Nc3cc(Cl)c4ncc(C#N)c(Nc5cnc(F)c(F)c5)c4c3)c3ccc(F)cc3)nn2)CCC1 | human Cot catalytic domain (30-397 amino acids) (Homo sapiens, UniProt P41279) | pIC50 | 7.03
N#Cc1cnc2c(Cl)cc(N[C@@H](c3ccccc3)c3cn(CCCN4CCCC4)nn3)cc2c1Nc1c(F)cc(F)cc1F | human Cot catalytic domain (30-397 amino acids) (Homo sapiens, UniProt P41279) | pIC50 | 7.02

[P] N#Cc1cnc2c(Cl)cc(N[C@@H](c3ccccc3)c3c[nH]nn3)cc2c1Nc1ccc(Cl)c(Cl)c1F
[Q] N#Cc1cnc2c(Cl)cc(N[C@@H](c3ccccc3)c3cn(CCCN4CCCC4)nn3)cc2c1Nc1ccc(F)c(Cl)c1
[R] CC(C)(C)N1CCC(n2cc([C@@H](Nc3cc(Cl)c4ncc(C#N)c(NC5CCCCCC5)c4c3)c3ccc(Cl)cc3)nn2)CC1
[S] N#Cc1cnc2c(Cl)cc(N[C@H](c3cn(C4COC4)nn3)c3ccc(F)cc3F)cc2c1Nc1cnc(F)c(F)c1
Incoming: Order the records so the highest pIC50 appears first and the lowest last. # the answer lists labels in the order requested
Outgoing: Q, S, R, P

###

- Test system: TNFα production in LPS-stimulated human monocytes
- Run Description: Cot Monocyte TNFα Cell Based Assay
- Assay Conditions: Homo sapiens, Monocyte, LPS-stimulated human monocytes, TNFα TR-FRET; read-out: EC50 TNF
Measurement Label: EC50 (nM)

[1] Cc1c(C#N)cccc1[C@H](Nc1cc(C#N)c2ncc(C#N)c(NCC(C)(C)C(F)(F)F)c2c1)c1cn(C2(C)CC2)nn1 [Example 1146]
[2] CC(C)(C)CNc1c(C#N)cnc2c(C#N)cc(N[C@H](c3cn(C4(C(N)=O)CCOC4)nn3)c3ccccc3Cl)cc12 (stereo partly shown) [Example 1022]
Incoming: Could you please tell me which of these two has the higher EC50: 1 or 2 ? API: response body contains the label of the selected item.
Outgoing: 2

###

- Test system: TNFα production in LPS-stimulated human monocytes
- Run Description: Cot Monocyte TNFα Cell Based Assay
- Assay Conditions: LPS-stimulated human monocytes, TNFα TR-FRET; read-out: EC50 TNF
pEC50: −log10 of the molar value.
Measurement Label: pEC50

[a] CC(C)(C)CNc1c(C#N)cnc2c(Cl)cc(NC(c3cn(C4(CO)CC4)nn3)c3ccccc3Cl)cc12 (centres unmarked)
[b] Cc1c(C#N)cccc1[C@H](Nc1cc(C#N)c2ncc(C#N)c(NCC(C)(C)C(F)(F)F)c2c1)c1cn(C2(C(F)F)CC2)nn1
Incoming: Could you please tell me which of these two has the higher pEC50: a or b ? API: response body contains the label of the selected item.
Outgoing: b

###

- Experimental Target: human Cot catalytic domain (30-397 amino acids) (Homo sapiens, UniProt P41279)
- Construct: Purified recombinant human Cot catalytic domain (30-397 amino acids) was purchased from Cama Biosciences; purchased Cama Biosciences (so in the source)
- Run Description: High Throughput Cot Biochemical Assay (KinEASE TR-FRET)
- Assay Conditions: Cot biochemical HTRF (KinEASE TR-FRET) assay; read-out: IC50 HTRF
Measurement Label: IC50 (µM)

Some molecules with recorded IC50:
Molecule | Experimental Target | IC50 [µM]
N#Cc1cnc2c(Cl)cc(N[C@@H](c3ccc(F)cc3)c3c[nH]nn3)cc2c1NCC1CCOC1 (stereo partly shown) | human Cot catalytic domain (30-397 amino acids) (Homo sapiens, UniProt P41279) | 0.191
COC(C)(C)CNc1c(C#N)cnc2c(Cl)cc(N[C@@H](c3ccccc3)c3cn(C4CCN(C(C)(C)C)CC4)nn3)cc12 | human Cot catalytic domain (30-397 amino acids) (Homo sapiens, UniProt P41279) | 0.068
C[C@@H](Nc1c(C#N)cnc2c(Cl)cc(N[C@@H](c3cccc(C(=O)N(C)C)c3)c3cn(C4CCN(C(C)(C)C)CC4)nn3)cc12)c1ccccc1 | human Cot catalytic domain (30-397 amino acids) (Homo sapiens, UniProt P41279) | 0.006

[P] N#Cc1cnc2c(Cl)cc(N[C@@H](c3ccc(F)cc3)c3cn(CC(F)F)nn3)cc2c1Nc1cnc(F)c(F)c1
[Q] CC(C)Nc1c(C#N)cnc2c(Cl)cc(N[C@@H](c3ccc(Cl)cc3)c3cn(C4CCN(C(C)(C)C)CC4)nn3)cc12
[R] N#Cc1cnc2c(Cl)cc(N[C@H](c3c[nH]nn3)c3ccccc3C(F)F)cc2c1Nc1cnc(F)c(F)c1
[S] CC[C@@H](C)Nc1c(C#N)cnc2c(Cl)cc(N[C@@H](c3ccccc3)c3cn(C4CCN(C(C)(C)C)CC4)nn3)cc12
Incoming: Order the records so the highest IC50 appears first and the lowest last. # the answer lists labels in the order requested
Outgoing: Q, S, R, P
(Q: 0.599 µM, S: 0.131 µM, R: 0.034 µM, P: 0.023 µM)

###

- Experimental Target: human Cot catalytic domain (30-397 amino acids) (Homo sapiens)
- Construct: Purified recombinant human Cot catalytic domain (30-397 amino acids) was purchased from Cama Biosciences; purchased Cama Biosciences (so in the source)
- Run Description: High Throughput Cot Biochemical Assay (KinEASE TR-FRET)
- Assay Conditions: Cot biochemical HTRF (KinEASE TR-FRET) assay; read-out: IC50 HTRF
Measurement Label: IC50 (nM)

Compound | Measured Value
CC(C)(C)N1CCC(n2cc([C@@H](Nc3cc(Cl)c4ncc(C#N)c(NC5CCCCC5)c4c3)c3ccc(Cl)cc3)nn2)CC1 | 62

[1] N#Cc1cnc2c(Cl)cc(N[C@H](c3c[nH]nn3)c3ccc(F)cc3Cl)cc2c1Nc1cnc(F)c(F)c1
[2] Cn1cc(C(Nc2cc(Cl)c3ncc(C#N)c(Nc4ccc(F)c(Cl)c4)c3c2)c2ccc(F)cc2)cn1 (stereo not shown)
[3] N#Cc1cnc2c(Cl)cc(N[C@@H](c3ccccc3)c3cn(CC(=O)N4CCOCC4)nn3)cc2c1Nc1ccc(F)c(Cl)c1
Incoming: Order the records so the highest IC50 appears first and the lowest last. # the answer lists labels in the order requested
Outgoing: 2, 1, 3
(2: 6300 nM, 1: 48 nM, 3: 29 nM)

###

- System: TNFα production in LPS-stimulated human monocytes
- Run Description: Cot Monocyte TNFα Cell Based Assay
- Assay Conditions: Homo sapiens, Monocyte, LPS-stimulated human monocytes, TNFα TR-FRET; read-out: EC50 TNF
Measurement Label: EC50 (nM)

[1] CCN1CCC(n2cc([C@H](Nc3cc(Cl)c4ncc(C#N)c(Nc5ccc(F)c(Cl)c5)c4c3)c3ccccc3)nn2)CC1
[2] Cc1c(C#N)cccc1[C@H](Nc1cc(Cl)c2ncc(C#N)c(NCC(C)(C)C)c2c1)c1cn(C2(C(N)=O)CC2)nn1
[3] CC(C)(C)CNc1c(C#N)cnc2c(Cl)cc(N[C@@H](c3ccc(C#N)cc3)c3cn(C4CC4)nn3)cc12
[4] [2H][C@](Nc1cc(Cl)c2ncc(C#N)c(N[C@H](CCOC)c3ccccc3)c2c1)(c1ccc(F)cc1)c1cn(C2CC2)nn1
Incoming: Which order do these items take when sorted by rising EC50? List them. # the answer lists labels in the order requested
Outgoing: 3, 2, 4, 1

###

- Experimental Target: human Cot catalytic domain (30-397 amino acids) (Homo sapiens)
- Construct: Purified recombinant human Cot catalytic domain (30-397 amino acids) was purchased from Cama Biosciences; purchased Cama Biosciences (so in the source)
- Run Description: High Throughput Cot Biochemical Assay (KinEASE TR-FRET)
- Assay Conditions: Cot biochemical HTRF (KinEASE TR-FRET) assay; read-out: IC50 HTRF
pIC50: −log10 of the molar value.
Measurement Label: pIC50

[P] CC[C@@H](Nc1c(C#N)cnc2c(Cl)cc(N[C@@H](c3ccccc3)c3cn(CCCN4CCCC4)nn3)cc12)c1ccccc1
[Q] CC(C)(C)N1CCC(n2cc([C@@H](Nc3cc(Cl)c4ncc(C#N)c(Nc5ccc(F)c(Cl)c5)c4c3)c3cccc(C(=O)N4CC(F)C4)c3)nn2)CC1
Incoming: Could you please tell me which of these two has the higher pIC50: P or Q ? API: response body contains the label of the selected item.
Outgoing: Q
(Q: 9.00, P: 8.52)

[P] CC(C)(C)N1CCC(n2cc([C@@H](Nc3cc(Cl)c4ncc(C#N)c(Nc5cc(Cl)c(F)cc5F)c4c3)c3ccc(Cl)cc3)nn2)CC1
[Q] CC[C@H](C)Nc1c(C#N)cnc2c(Cl)cc(N[C@@H](c3ccccc3)c3cn(C(C)C)nn3)cc12
[R] N#Cc1cnc2c(Cl)cc(N[C@@H](c3ccc(F)cc3)c3cn(C4(C(F)(F)F)CC4)nn3)cc2c1Nc1cnc(F)c(F)c1
[S] N#Cc1cnc2c(Cl)cc(NC(c3ccccc3)c3cn(C4CCNCC4)cn3)cc2c1Nc1ccc(F)c(Cl)c1 (stereo not shown)
[T] CC[C@@H](Nc1c(C#N)cnc2c(Cl)cc(N[C@@H](c3cccc(C(=O)N4CC(O)C4)c3)c3c[nH]nn3)cc12)c1ccccc1
Incoming: Please put the entries in order of rising pIC50. # the answer lists labels in the order requested
Outgoing: Q, R, P, S, T

[a] Cc1nonc1C(Nc1cc(Cl)c2ncc(C#N)c(Nc3ccc(F)c(Cl)c3)c2c1)c1ccc(F)cc1 (stereo not shown)
[b] N#Cc1cnc2c(Cl)cc(N[C@@H](c3ccccc3)c3cn(CCCF)nn3)cc2c1Nc1ccc(F)c(Cl)c1
Incoming: Hi there, can you help? I need to know whether a or b has lower measured pIC50. API: response body contains the label of the selected item.
Outgoing: a

[1] N#Cc1cnc2c(Cl)cc(N[C@@H](c3ccc(F)cc3)c3cn(CCF)nn3)cc2c1Nc1cnc(F)c(F)c1
[2] N#Cc1cnc2c(Cl)cc(N[C@H](c3c[nH]nn3)c3ccccc3C(F)(F)F)cc2c1Nc1cnc(F)c(F)c1
Incoming: Could you please tell me which of these two has the higher pIC50: 1 or 2 ? API: response body contains the label of the selected item.
Outgoing: 1

[A] N#Cc1cnc2c(Cl)cc(N[C@H](c3cn(C4COC4)nn3)c3ccccc3C(F)(F)F)cc2c1Nc1cnc(F)c(F)c1
[B] Cn1cc(C(Nc2cc(Cl)c3ncc(C#N)c(Nc4ccc(F)c(Cl)c4)c3c2)c2ccc(Cl)cc2)nn1 (stereo not shown)
Incoming: Hi there, can you help? I need to know whether A or B has lower measured pIC50. API: response body contains the label of the selected item.
Outgoing: A
(A: 7.03, B: 7.41)
